Test system: Plasmodium berghei
assay-details: Screen against P. berghei liver stage (PbLuc), transformed with Luciferase, at 10uM
Assay type: functional, HepG2
study-conditions: tested at 10 uM
The campaign covered roughly 69,000 compounds. About 8,600 (12%) showed an effect of 50% or more. The entries come from a sample that favours strong results as a whole.
recorded-endpoint: INHIBITION (%)
Report as a plain number; the unit % is understood.

These recorded examples may help you get a feel for the data.
O=C(c1cccs1)N1CCC2(CC1)CCN(S(=O)(=O)C1CC1)CC2    45.7
CCC(Nc1cccc(OC)c1)C(=O)NCc1ccc2[nH]c(=O)[nH]c2c1 (stereo unspecified)    -0.27
Cn1ccnc(Sc2ccccc2)c1=O    -4.13
Cc1cccn2c(CC(=O)N3CCC(CCn4cccn4)CC3)cnc12    71.3
Cc1cccn2c(CC(=O)N3CCC(Oc4ncccn4)CC3)cnc12    -30.3

QUERY: Which INHIBITION is reported for this molecule? `COc1ccccc1CCN(C)Cc1nc(N)nc(N(C)C)n1`
RESULT: 34.1

QUERY: Returns the measured INHIBITION for the input molecule. Input: `COc1ccc(C)cc1NC(=O)Nc1cnc(N2CCN(C)CC2)nc1`
RESULT: 38.7

QUERY: Recorded INHIBITION of `Cc1ccc2nc(C(=O)N3CCC(CCn4cccn4)CC3)cn2c1` , please.
RESULT: -14.1

---

Test system: Plasmodium berghei
assay-details: Screen against P. berghei liver stage (PbLuc), transformed with Luciferase, at 10uM
Format: functional, HepG2
study-conditions: tested at 10 uM
The whole screen tested about 69,000 compounds, of which about 8,600 (12%) showed an effect of 50% or more. For the sample, strong results were picked, then their nearest neighbours and some compounds at random.
recorded-endpoint: INHIBITION (%)
Numbers only here, please. The scale is %.

Answered examples (2):
Cc1cc(CNCC2CNc3ccnn3C2)no1 (stereo unspecified)    31
O=C(c1ccsc1)N1CCOC2(CCN(Cc3cccnc3)CC2)C1    -9.67

For the next question, use this compound.
QUERY: What value of measured INHIBITION is listed for CCC(C)S(=O)(=O)N1CCc2nc(C3CCNCC3)ncc2C1 (stereo unspecified) ?
RESULT: 57.5

---

Test system: Plasmodium berghei
assay-details: Screen against P. berghei liver stage (PbLuc), transformed with Luciferase, at 10uM
Format: functional, HepG2
study-conditions: tested at 10 uM
Out of some 69,000 compounds screened, about 8,600 (12%) showed an effect of 50% or more. This is one part of a sample in which strong results are shown more often than they occur.
recorded-endpoint: INHIBITION (%)
Respond with the bare value in %.

Cc1cc(C)n(CC2CN(CCOc3ccccc3F)CCO2)n1 (stereo not given)    9.14
CC(C)(C)C(=O)NCCc1cc(N2CCOCC2)nc(NC2CC2)n1    30.15
Cc1nc(CN(C)C2CCCN(c3cccnn3)C2)no1 (stereo not given)    -31.9

QUERY: Reported INHIBITION for Cc1cc(CNC2CCCN(c3cccnn3)C2)no1 (stereo not given) : what is it?
RESULT: 11.8

QUERY: Consider the compound shown here: `CCc1nnc2n1CCN(CC(=O)Nc1cc(C)nn1C)C2` What is its recorded INHIBITION?
RESULT: 45.6
